Overview of reported pKi across a group of compounds:
Biological target: 5-hydroxytryptamine receptor 2B (Homo sapiens)
Sequence (P41595 whole entry): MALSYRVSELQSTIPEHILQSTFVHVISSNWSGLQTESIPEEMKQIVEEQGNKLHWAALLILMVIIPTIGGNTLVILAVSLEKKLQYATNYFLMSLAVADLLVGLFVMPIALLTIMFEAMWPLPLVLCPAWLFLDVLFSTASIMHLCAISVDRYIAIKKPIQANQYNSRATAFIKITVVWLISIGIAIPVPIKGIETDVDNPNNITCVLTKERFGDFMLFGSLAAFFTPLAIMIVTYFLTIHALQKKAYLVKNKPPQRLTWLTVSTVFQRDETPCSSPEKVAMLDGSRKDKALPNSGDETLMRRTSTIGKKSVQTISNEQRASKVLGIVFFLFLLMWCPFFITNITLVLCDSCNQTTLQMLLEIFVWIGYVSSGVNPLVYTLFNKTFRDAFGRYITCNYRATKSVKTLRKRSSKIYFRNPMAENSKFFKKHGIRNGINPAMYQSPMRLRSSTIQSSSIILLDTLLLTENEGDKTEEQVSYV
pKi: −log10 of the molar value.
measured-quantity: pKi

INSERT INTO assay_data (query_smiles, measured_quantity, result) VALUES
  ('Cc1cccc(NC2=NC(N)=NC3(CCCCC3)N2)c1', 'pKi', 7.70),
  ('NC1=NC2(CCCCC2)NC(Nc2cccc(F)c2)=N1', 'pKi', 7.27),
  ('NC1=NC2(CCCCC2)NC(Nc2cccc(O)c2)=N1', 'pKi', 6.50);

====

Overview of reported log10(IC50) across a group of molecules:
Molecular target: UniProt:P41595
Assay: Antagonist activity at 5HT2B (unknown origin) expressed in CHOK1 cells assessed as inhibition of agonist-induced effect preincubated for 60 mins at 37 degC followed by 15 mins incubation at room temperature and subsequent agonist addition measured for 100 secs by fluorescence assay
measured-quantity: log10(IC50) (log10 of the value in nM)

INSERT INTO results (query_smiles, result) VALUES
  ('NC1=NC2(CCCCC2)NC(Nc2cc(F)cc(Br)c2)=N1', 1.87),
  ('NC1=NC2(CCCCC2)NC(Nc2ccccc2)=N1', 3.21),
  ('NC1=NC2(CCCCC2)NC(Nc2cccc(F)c2)=N1', 2.61),
  ('NC1=NC2(CCCCC2)NC(Nc2cccc(Br)c2)=N1', 1.55),
  ('NC1=NC2(CCCCC2)NC(Nc2cccc(I)c2)=N1', 1.37),
  ('CCOC(=O)c1cc(Br)cc(NC2=NC(N)=NC3(CCCCC3)N2)c1', 3.29),
  ('NC1=NC2(CCCCC2)NC(Nc2cc(Br)cc(Br)c2)=N1', 2.33),
  ('Cc1cccc(NC2=NC(N)=NC3(CCCCC3)N2)c1', 2.66),
  ('NC1=NC2(CCCCC2)NC(Nc2cccc(Cl)c2)=N1', 1.67);
